Entries and their Activity
test system: K562; experiment: Induction of apoptosis in human K562 cells assessed as cleaved PARP expression level at antiproliferative IC50 after 72 hrs by western blot analysis relative to control; format: functional
Number in %, nothing else.

| smiles-record | assay-result |
| --- | --- |
| O=C1C[C@H]2O[C@H]([C@H](F)c3ccccc3)[C@H](O)[C@H]2O1 | 161.5 |
| [N-]=[N+]=NC[C@H]1O[C@@H]2CC(=O)O[C@@H]2[C@H]1O | 425.4 |
| O=C1C[C@H]2O[C@H]([C@@H](O)c3ccccc3)[C@H](O)[C@H]2O1 | 108.4 |
| [N-]=[N+]=N[C@@H](c1ccccc1)[C@H]1O[C@@H]2CC(=O)O[C@@H]2[C@H]1O | 127.1 |
| [N-]=[N+]=N[C@H](c1ccccc1)[C@H]1O[C@@H]2CC(=O)O[C@@H]2[C@H]1O | 195.5 |

Fill in reported Activity for this entry: "O=C1C[C@H]2O[C@H]([C@H](Br)c3ccccc3)[C@H](O)[C@H]2O1"
142.2

Consider the compound "O=C1C[C@H]2O[C@H]([C@@H](Br)c3ccccc3)[C@H](O)[C@H]2O1" . State its measured Activity.
94.7

Annotate the compound "O=C1C[C@H]2O[C@H](CI)[C@H](O)[C@H]2O1" with its measured Activity.
324.2

Provide only the value of recorded Activity for "O=C1C[C@H]2O[C@H]([C@@H](Cl)c3ccccc3)[C@H](O)[C@H]2O1"
102.4

Please look at this compound and report its Activity: "O=C1C[C@H]2O[C@H]([C@@H](F)c3ccccc3)[C@H](O)[C@H]2O1"
103.5

Given "O=C1C[C@H]2O[C@H](CF)[C@H](O)[C@H]2O1" , respond with its Activity.
191.8

Consider the compound "O=C1C[C@H]2O[C@H]([C@@H](I)c3ccccc3)[C@H](O)[C@H]2O1" and give its recorded Activity.
106

Give reported Activity value for "O=C1C[C@H]2O[C@H]([C@H](O)c3ccccc3)[C@H](O)[C@H]2O1"
107.9
